Measured values drawn from patent US11845736B2 for this set.

test: Compound chemical stability SGF with pepsin; settings: 240 minutes
Mark each entry 1 if its % Remaining sits below 90%, and -1 for all others.

**Query** Consider `C[C@H](Cc1ccc2c(c1)OCO2)NC(=O)OC(C)(C)C` . Does its % Remaining lie strictly below 90%?
**Result** 1

**Query** Consider CC(OC(=O)N(C)C(C)Cc1ccc2c(c1)OCO2)OC(=O)C(C)(C)C (stereo not drawn) . Does its % Remaining lie strictly below 90%?
**Result** -1

**Query** Consider `C[C@H](Cc1ccc2c(c1)OCO2)N(C)C(=O)OC(C)(C)C` . Does its % Remaining lie strictly below 90%?
**Result** 1

**Query** Consider CC(Cc1ccc2c(c1)OCO2)N(C)C(=O)CN (stereo not drawn) . Does its % Remaining lie strictly below 90%?
**Result** -1

**Query** Consider CCOC(=O)N(C)C(C)Cc1ccc2c(c1)OCO2 (stereo not drawn) . Does its % Remaining lie strictly below 90%?
**Result** -1

**Query** Consider `Cc1oc(=O)oc1CN(C)[C@H](C)Cc1ccc2c(c1)OCO2` . Does its % Remaining lie strictly below 90%?
**Result** 1

**Query** Consider CCOC(=O)NC(C)Cc1ccc2c(c1)OCO2 (stereo not drawn) . Does its % Remaining lie strictly below 90%?
**Result** -1

====

% Remaining values, listed per item
test: Compound chemical stability SGF without pepsin; settings: 30 minutes

Use these answered entries as a reference point.
compound	% Remaining
CCOC(=O)NC(C)Cc1ccc2c(c1)OCO2 (stereo not shown) [Compound 2]	102.53%
CCOC(=O)N(C)C(C)Cc1ccc2c(c1)OCO2 (stereo not shown) [Compound 1]	103.81%
Cc1oc(=O)oc1CN[C@H](C)Cc1ccc2c(c1)OCO2 [Compound 8]	97%

Let's switch to this compound now.
GET /value?item= C[C@H](Cc1ccc2c(c1)OCO2)N(C)C(=O)OC(C)(C)C [Compound 7] &field=% Remaining returns 89.90%

====

test: Compound chemical stability SGF without pepsin; settings: 30 minutes
observation type: % Remaining (%)
Write the number in % without appending the unit.

Use these answered entries as a reference point.
compound	% Remaining [%]
CC(Cc1ccc2c(c1)OCO2)N(C)C(=O)CN (centres unmarked)	94.49
CC(OC(=O)N(C)C(C)Cc1ccc2c(c1)OCO2)OC(=O)C(C)(C)C (centres unmarked)	97.82

GET /value?item= `C[C@H](Cc1ccc2c(c1)OCO2)NC(=O)OC(C)(C)C` &field=% Remaining returns 87.96

GET /value?item= `Cc1oc(=O)oc1CN(C)[C@H](C)Cc1ccc2c(c1)OCO2` &field=% Remaining returns 94

GET /value?item= CC(Cc1ccc2c(c1)OCO2)NC(=O)CN (centres unmarked) &field=% Remaining returns 101.17

====

assay: Compound chemical stability SGF without pepsin; conditions: 0 minutes
observation type: % Remaining (%)
Write the number in % without appending the unit.

compound	reading unit	% Remaining
CCOC(=O)N(C)C(C)Cc1ccc2c(c1)OCO2 (centres unmarked)	%	100.00

GET /value?item= `Cc1oc(=O)oc1CN(C)[C@H](C)Cc1ccc2c(c1)OCO2` &field=% Remaining returns 1000

====

test: Compound chemical stability SGF without pepsin; conditions: 0 minutes
observation type: % Remaining (%)
Write the number in % without appending the unit.

Use these answered entries as a reference point.
molecule	% Remaining [%]
CC(Cc1ccc2c(c1)OCO2)NC(=O)CN (stereo not shown) [Compound 5]	100.00
Cc1oc(=O)oc1CN[C@H](C)Cc1ccc2c(c1)OCO2 [Compound 8]	100
C[C@H](Cc1ccc2c(c1)OCO2)N(C)C(=O)OC(C)(C)C [Compound 7]	100.00

Let's switch to this molecule now.
GET /value?item= C[C@H](Cc1ccc2c(c1)OCO2)NC(=O)OC(C)(C)C [Compound 6] &field=% Remaining returns 100.00
